Each record here notes measured Kd.
MEASUREMENT_TARGET: T1, human IL-36γ, truncated (human, UniProt Q9NZH8 18-169)
T1 construct: Bought from R&D Systems (cat 6835-IL); also called human IL-36 gamma; hIL-36gamma
T1 sequence: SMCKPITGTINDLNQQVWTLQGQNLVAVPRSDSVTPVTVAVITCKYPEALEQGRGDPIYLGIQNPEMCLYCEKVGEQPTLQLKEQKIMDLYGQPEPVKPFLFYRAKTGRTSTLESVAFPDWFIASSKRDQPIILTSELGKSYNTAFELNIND
EXPERIMENT_SUMMARY: SPR, Biacore, 1:1 Langmuir fit
Give the value, in units of nM, as a plain number.

Data point: 144D464A LV9are HV10b (antibody, V domains shown, Humanized) VH: QVQLVQSGAEVKKPGASVKVSCKASGFNIKDTYIHWVRQAPGQGLEWIGRIDPAIGTTRYDPKFQGRATITTDTSTSTVYLEFSSLRSEDTAVYYCARLHYFGNNFFFDYWGQGTLVTVSS VL: QAVVTQEPSLTVSPGGTVTLTCRSSSGAVTTSNYANWVQEKPGQLFAGLIGGTNDRAPGVPARFSGSLLGGKAALTLSGAQPEDEADYFCALWFSNHWVFGGGTKLTVL ; Kd = 1.3

Data point: 144L249B LV9 HV10c (antibody, V domains shown, Humanized) VH: QVQLVQSGAEVKKPGASVKVSCKASGFNIKDTYIYWVRQAPGQGLEWIGRIDPAIGTTRYDPKFQGKATLTADTSTNTAYLELSSLRSEDTAVYYCARYDYSGSSFYFDYWGQGTLVTVSS VL: QAVVTQEPSLTVSPGGTVTLTCRSSTGAVTTSNYANWVQEKPGQLFTGLIGGTNDRAPGVPARFSGSLLGGKAALTLSGAQPEDEADYFCALWYSNHLVFGGGTKLTVL ; Kd = 0.625

Data point: 144D464A (antibody, V domains shown, Mouse monoclonal from hybridoma; mouse IgG heavy and lambda light chain; also called mouse antibody 144D464A) VH: EVQLQQSGAELVKPGASVRLSCTASGFNIKDTYIHWVKQRPEQGLEWIGRIDPAIGTTRYDPKFQGKATITTDTSSDTVHLQFSSLTSEDTAVYYCARLHYFGNNFFFDYWGQGTTLTVSS VL: QAVVTQESALTTSPGEAVTLTCRSSSGAVTTSNYANWVQEKPDHLFAGLIGGTNDRAPGVPARFSGSLIGDKAALTITGAQTEDEAIYFCALWFSNHWVFGGGTKLTVL ; Kd = 0.877

Data point: 144L249B (antibody, V domains shown, Mouse monoclonal from hybridoma; mouse IgG heavy and lambda light chain; also called mouse antibody 144L249B) VH: EVQLQQSGAELVKPGASVKLSCTASGFNIKDTYIYWVKQRPEQGLEWIGRIDPAIGTTRYDPKFQGKATLTADTSSNTAFLQLSSLTSEDTAVYYCARYDYSGSSFYFDYWGRGTTLTVSS VL: QAVVTQESALTTSPGETVTLTCRSSTGAVTTSNYANWVQEKPDHLFTGLIGGTNNRAPGVPARFSGSLIGDKAALTITGAQTEDEAIYFCALWYSNHLVFGGGTKLTVL ; Kd = 0.399

Data point: 144L249B LV7a HV11 (antibody, V domains shown, Humanized) VH: QVQLVQSGAEVKKPGASVKVSCKASGFNIKDTYIYWVRQAPGQGLEWIGRIDPAIGTTRYDPKFQGKATLTTDTSTNTAYLELSSLRSEDTAVYYCARYDYSGSSFYFDYWGQGTLVTVSS VL: QAVVTQEPSLTVSPGGTVTLTCRSSTGAVTTSNYANWVQQKPGQAFTGLIGGTNDRAPGVPARFSGSLLGGKAALTISGAQPEDEADYFCALWYSNHLVFGGGTKLTVL ; Kd = 0.789

Data point: 144L249B LV9 HV11 (antibody, V domains shown, Humanized) VH: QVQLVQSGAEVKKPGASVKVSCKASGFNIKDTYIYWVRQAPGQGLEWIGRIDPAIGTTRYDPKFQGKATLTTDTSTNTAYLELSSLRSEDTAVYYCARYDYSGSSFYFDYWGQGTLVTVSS VL: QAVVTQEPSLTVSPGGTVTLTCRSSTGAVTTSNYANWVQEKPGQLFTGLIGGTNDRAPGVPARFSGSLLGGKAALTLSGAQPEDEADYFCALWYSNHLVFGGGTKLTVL ; Kd = 0.795

Data point: 144D464A LV7a HV10b (antibody, V domains shown, Humanized; also called humanized 144D464A antibody LV7a HV10b) VH: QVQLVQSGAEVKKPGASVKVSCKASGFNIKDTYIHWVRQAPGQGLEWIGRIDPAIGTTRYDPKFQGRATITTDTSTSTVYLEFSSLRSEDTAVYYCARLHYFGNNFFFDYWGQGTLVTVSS VL: QAVVTQEPSLTVSPGGTVTLTCRSSSGAVTTSNYANWVQQKPGQAFAGLIGGTNDRAPGVPARFSGSLLGGKAALTISGAQPEDEADYFCALWFSNHWVFGGGTKLTVL ; Kd = 1.31
